Tested on: Trypanosoma cruzi
Assay: GSK_TCAKS: pIC50 H2C9 Imaging: H9c2 Host Cardiomyocytes. […] Cells were then washed once with PBS before infection. T. cruzi trypomastigotes, collected at days 5 to 8 after infection from LLC-MK2 parasite infected cultures, were allowed to swim out for 4h at 37C from a centrifuged pellet (2,500 rpm/10 min/room temperature). Trypomastigotes were then collected and counted in a CASY Cell Counter. Trypomastigotes, in supplemented DMEM, were added to H9c2 cultures in a multiplicity of infection of 1 and incubated for 18 h. Cells were washed once with PBS before incubation of the infected H9c2 monolayer with trypsin (Life-Technologies) to detach cells from the flask. Cells were counted in a CASY Cell Counter using a 150 um capillary and their density set at 5 * 10^4 cells per mL in supplemented assay DMEM. Infected H9c2 were dispensed into 384-well poly-lysine coated assay plates at 50uL per well using a Multidrop Combi dispenser. After seeding them, the plates were incubated at 37C, 5% CO2 for 72h. Cultures were then fixed and stained by addition of 50 uL of a solution containing 8% formaldehyde and 4 uM DRAQ5 DNA dye (BioStatus, UK) per well. […] Five images were collected per well for reliable statistical analysis. Automated image analysis was performed with a script developed on Acapella High Content Imaging and Analysis Software (PerkinElmer). Output: Number of H9c2 Host Cardiomyocytes nuclei to determine drug-related cytotoxicity.
Assay type: functional, organism-based, Rattus norvegicus
Conditions: H9c2, 4 h
Measurement Label: log10 of IC50 (log10 of the value in µM)
Could you please treat all values as log10 of IC50 in µM?

Example cases with answers are listed next.
| Structure Notation | Experimental Value |
| --- | --- |
| O=[N+]([O-])c1ccc(C2=NCCNC(c3ccccc3)=C2)cc1.[O-][Cl+3]([O-])([O-])O | 1.50 |
| O[C@H]1CC[C@H](Nc2nccc(-c3sc(C4CCOCC4)nc3-c3ccc(F)c(F)c3)n2)CC1 | 1.50 |
| Cc1cnc(Nc2cc(Cc3ccccc3)nc(N[C@H]3CC[C@H](O)CC3)n2)s1 | -1.50 |
| COc1ccc(Nc2nc(N[C@H]3CC[C@H](O)CC3)ncc2Br)c(C(N)=O)c1 | -0.10 |
| NC(=O)c1ccccc1Nc1nc(NC2CCCCC2)nc2[nH]ccc12 | 1.40 |

INPUT: Dear colleague, please send me the reported log10 of IC50 for `COc1ccc(-c2cc(C)no2)cc1S(=O)(=O)Nc1ccc(F)c(Cl)c1` when you can.
OUTPUT: 1.70

====

Entries and their log10(IC50) values follow.
Biological target: Sterol 14-alpha demethylase (Trypanosoma cruzi (strain CL Brener))
Sequence (Q7Z1V1 whole entry): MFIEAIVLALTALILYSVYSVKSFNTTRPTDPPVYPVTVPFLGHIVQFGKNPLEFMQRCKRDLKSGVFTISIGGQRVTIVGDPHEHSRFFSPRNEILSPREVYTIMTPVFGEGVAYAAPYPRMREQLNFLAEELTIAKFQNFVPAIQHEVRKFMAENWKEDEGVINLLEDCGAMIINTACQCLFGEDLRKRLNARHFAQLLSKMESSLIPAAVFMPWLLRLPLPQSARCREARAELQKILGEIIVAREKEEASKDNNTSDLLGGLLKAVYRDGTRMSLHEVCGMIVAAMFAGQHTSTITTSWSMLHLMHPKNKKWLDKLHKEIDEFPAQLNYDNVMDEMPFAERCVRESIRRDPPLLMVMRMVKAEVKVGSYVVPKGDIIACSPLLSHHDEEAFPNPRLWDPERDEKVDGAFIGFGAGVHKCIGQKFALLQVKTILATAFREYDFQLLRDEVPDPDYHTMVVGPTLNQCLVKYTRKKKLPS
Experiment: GSK_TCAKS: pIC50 CYP51 from Trypanosoma cruzi.
Could you please treat all values as log10 of IC50 in µM?

INPUT: Dear colleague, please send me the reported log10(IC50) for `NCc1ccc2c(Cl)cc(Cl)c(O)c2n1` when you can.
OUTPUT: 1.60

INPUT: Dear colleague, please send me the reported log10(IC50) for `O=C(Nc1cccc(Cl)c1)Nc1ccc([N+](=O)[O-])cc1Cl` when you can.
OUTPUT: 0.70

====

Tested on: Trypanosoma cruzi
Test: GSK_TCAKS: pIC50 Trypanosoma cruzi viability assay using beta-GAL activity. This assay was run at single shot at 5uM compound concentration per well. The biological reagents consisted of NIH-3T3 host cells and trypomastigotes parasitic cells; both cell types were set to a 3.3 * 10^5 cells/mL dilution in assay DMEM by means of a CASY cell counter device using a 60um capillary. 6 uL of the mixture were dispensed per well (about 1 * 10^3 host-cells and 1 * 10^3 parasites) with a Multidrop Combi dispenser. […] In all wells, the percentage of DMSO never exceeded 0.5%. Plates incubated for four days at 37C, 5% CO2. The substrate used for the assay fluorescence intensity (FLINT) readout was resorufin-beta-D-galactopiranoside (Sigma-Aldrich) at 5uM per well. It was diluted in PBS supplemented with the soft detergent Igepal (Fluka).
Type: functional, organism-based, Mus musculus
Conditions: Tulahuen, NIH3T3
Measurement Label: pIC50
pIC50 is a log-scale quantity: -log10 of the concentration expressed in molar.

| Molecule | pIC50 |
| --- | --- |
| C[C@@H](Oc1cc(-n2cnc3ccc(CC(O)CO)cc32)sc1C(N)=O)c1ccccc1Cl (stereo not given in full) | 5.50 |
| COc1ccc(Nc2nc(N[C@H]3CC[C@H](O)CC3)ncc2Br)c(C(N)=O)c1 | 5.40 |
| COc1cc(C(C)C)c(S(C)(=O)=O)cc1C(=O)N1CCN(c2ccccc2Cl)CC1 | 5.80 |

INPUT: Dear colleague, please send me the reported pIC50 for `NC(=O)c1ccccc1Nc1nc(NC2CCCCC2)nc2[nH]ccc12` when you can.
OUTPUT: 6.00

INPUT: Dear colleague, please send me the reported pIC50 for `CC(C)C[C@H](NC(=O)c1ccc(-c2ccccc2)o1)C(=O)NC1(C#N)CC1` when you can.
OUTPUT: 4.50
